- assayedTarget: human full-length VWF (human, UniProt P04275 764-2813)
- experimentSummary: SPR, Biacore T200, antibody captured on Protein A, full-length VWF as analyte, single-cycle kinetics
readoutLabel: koff
Hey, just the number and the unit after it is fine.

Give the measured koff for 1-A2_H2_L1 (antibody, human IgG1, kappa, V domains shown, humanised, human IgG1 kappa) VH: QQLVESGGGVVQPGRSLRLSCAASGIDLTSNAMNWVRQAPGKGLEWIGGIYGHDTSYYAAWAKGRFTISRDSNTVYLQMNSLRAEDTATYFCARGFIYFDIWGQGTLVTVSS VL: DIQMTQSPSSLSASVGDRVTITCLASEDIYSGISWYQQKPGKAPKLLIYGASNLESGVPSRFSGSGSGTDYTLTISSLQPEDFATYYCLGGHSHSTTDLTFGGGTKVEIKT 3.84e-08 s⁻¹

Give the measured koff for 1-A2_H1_VL-par (antibody, human IgG1, kappa, V domains shown, also called 1-A2_H1 (hIgG1)) VH: QVQLVESGGGVVQPGRSLRLSCAASGIDLTSNAMNWVRQAPGKGLEWVAGIYGHDTSYYAAWAKGRFTISRDNSKNTLYLQMNSLRAEDTAVYYCARGFIYFDIWGQGTLVTVSS VL: AIEMTQTPPSLSASVGETVRIRCLASEDIYSGISWYQQKPGKPPTLLIYGASNLESGVPPRFSGSGSGTDYTLTIGGVQAEDAATYYCLGGHSHSTTDLTFGAGTKVEIKT 9.49e-07 s⁻¹

Give the measured koff for 4-H3_VH-par_L0 (antibody, human IgG1, kappa, V domains shown, also called 4-H3_L0 (hIgG1K)) VH: SQSLEESGGRLVPPGTPLTLTCTVSGIDLTSNAMNWVRQAPGKGLEWIGGIYGHDTSYYAAWAKGRFTISRTSTTVDLKMTRPTTDDTATYFCARGFIYFDIWGTGTLVTISS VL: DIQMTQSPSSLSASVGDRVTITCLASEDIASGISWYQQKPGKAPKLLIYGASNLESGVPSRFSGSGSGTDFTLTISSLQPEDFATYYCLGGYSFSSNGLTFGGGTKVEIKT 8.46e-08 s⁻¹
